Values from patent EP0241395A2

# Lookup of reported Pouvoir édulcorant keyed by entry
test system: groupe de huit goûteurs expérimentés; assay: Sweetening power judged by a panel of eight experienced tasters against a sucrose reference solution; assay type: in vivo; conditions: Table II; weight basis, relative to a 2 % sucrose solution

>>> result("O=C(O)CNC(=Nc1ccccc1)NCC1CCCCC1 [Exemple 55]")
"3 300"
>>> result("C[C@H](NC(=Nc1cccc(C(F)(F)F)c1)NCC(=O)O)c1ccccc1 [Exemple 3]")
"7 500"
>>> result("CSc1cccc(N=C(NCC(=O)O)N[C@@H](C)c2ccccc2)c1 [Exemple 10]")
"5 500"

Challenge: Enter reported Pouvoir édulcorant observed with groupe de huit goûteurs expérimentés for COc1ccc(N=C(NCC(=O)O)N[C@@H](C)c2ccccc2)cc1 [Exemple 19]
Response given: 2 100
